FYI, the data here is from the supplement of paper PMC10567573.

B1: KCNA3 (parent)
chain: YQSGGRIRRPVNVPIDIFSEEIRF

- Variants of: B1
- assayProcedure: protein stability index of a GFP-peptide fusion (GPS, HEK-293T) (PSI 1-6); higher = more stable;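 also: lentivirally expressed fusions sorted by FACS into six bins by GFP to DsRed ratio, PSI derived from sequencing read proportions per bin multiplied by bin number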
- details: c terminus: a fixed tail appended
measurementKind: protein stability index
Give a plain numeric answer without units written out.

Reference set (2 entries):
>>> observedvalue("R6D")
2.15
>>> observedvalue("I7T")
1.91

get_value(item= `R8L` , readout=protein stability index) returns 1.26

Looking up `I22R` , I see its protein stability index listed as 2.68

protein stability index reported for this variant `S3H` : 2.84
